Tested on: SF-268
Experiment: NCI screen, growth of human tumor cells: CNS Cancer SF-268
Format: cell-based
Conditions: SF-268 (CNS Cancer), 10^−4 molar
# maps each entry to its percent of growth of human tumor cells
Express it in %; write the number only.

Please review the following examples before continuing.
# input Consider the molecule CC1(C)OCC(COC(=O)C(=O)OC(C(=O)OCC2COC(C)(C)O2)=C2S(=O)(=O)OCCOS2(=O)=O)O1 (stereo not shown) [NSC 737275] and give its recorded percent of growth of human tumor cells.
# output 24

# input Consider the molecule O=S1(=O)OCCOS(=O)(=O)C1C1c2ccccc2-c2ccccc21 [NSC 686562, ethylene 9-fluorenylmethanedisulfonate] and give its recorded percent of growth of human tumor cells.
# output 29

# input Consider the molecule CC1(C)OCC(COC(=O)C(=O)C2(Cc3ccc4c(c3)C(=O)c3ccccc3C4=O)S(=O)(=O)OCCOS2(=O)=O)O1 (stereo not shown) [NSC 737276] and give its recorded percent of growth of human tumor cells.
# output −40

Query molecule follows.
# input Consider the molecule CC=CC(=O)C1(CC2=C(C)C(=O)c3ccccc3C2=O)S(=O)(=O)OCCOS1(=O)=O [NSC 731265] and give its recorded percent of growth of human tumor cells.
# output −49
